Values compiled from patent US9833444B2.

TARGET SYSTEM: recombinant toxin sphingomyelinase D (SMase D) (Loxosceles laeta)
Sequence (Q8I914 27-311 limits assumed): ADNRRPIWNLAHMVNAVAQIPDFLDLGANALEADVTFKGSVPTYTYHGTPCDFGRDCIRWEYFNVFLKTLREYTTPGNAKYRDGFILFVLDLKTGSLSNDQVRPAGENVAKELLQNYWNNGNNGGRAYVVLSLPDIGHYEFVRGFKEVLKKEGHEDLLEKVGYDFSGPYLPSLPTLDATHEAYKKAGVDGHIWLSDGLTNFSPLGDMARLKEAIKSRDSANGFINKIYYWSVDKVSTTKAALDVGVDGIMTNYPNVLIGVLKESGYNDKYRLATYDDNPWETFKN
ASSAY COMMENT: biochemical
MEASURED ATTRIBUTE: IC50 (µM)
Please give a number only; it is taken to be in µM.

1) Cc1[nH]c2ccccc2c1/C=N/NS(=O)(=O)c1ccc(Br)cc1 [Compound 5] | 45.4

Next, consider the following compound.
Q. For recombinant toxin sphingomyelinase D (SMase D) (Loxosceles laeta), give the measured IC50 of the entry Cc1cc(OS(=O)(=O)c2ccc(Cl)cc2)cc2c1C(=O)C(=Cc1cccnc1)O2 [Compound 6]
A. 63.4
